Molecular target: GLP-1R (Homo sapiens, UniProt P43220)
Construct: host or cells: CRE-bla CHO-K1
Sequence (P43220 24-463): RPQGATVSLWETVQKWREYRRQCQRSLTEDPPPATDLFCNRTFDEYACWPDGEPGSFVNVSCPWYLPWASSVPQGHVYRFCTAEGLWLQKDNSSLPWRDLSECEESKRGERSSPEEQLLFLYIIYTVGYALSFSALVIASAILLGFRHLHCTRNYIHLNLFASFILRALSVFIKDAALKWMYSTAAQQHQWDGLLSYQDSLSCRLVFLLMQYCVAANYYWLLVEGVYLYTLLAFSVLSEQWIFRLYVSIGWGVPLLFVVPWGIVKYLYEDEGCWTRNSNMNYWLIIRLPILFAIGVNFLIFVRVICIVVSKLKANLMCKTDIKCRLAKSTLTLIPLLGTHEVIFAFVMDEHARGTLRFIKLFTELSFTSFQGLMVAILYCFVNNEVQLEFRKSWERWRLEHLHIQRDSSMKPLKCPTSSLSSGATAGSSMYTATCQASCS
Sequence (P01275 100-127 partner limits assumed): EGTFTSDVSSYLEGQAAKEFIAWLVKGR
Test: EC20 GLP-1(9-36) PAM cAMP Assay: dose response of compound in the presence of fixed concentration of GLP-1(9-36)
Type: cell-based
Details: GLP-1R CRE-bla CHO-K1 cells, in presence of fixed concentration of GLP-1(9-36), 30 min at 37° C.
Reported EC50 values follow for various molecules

Guide cases for EC50, answers given:
Lab book: EC50 of CC(C)C1CC=C(c2cnc(-c3ccc(C[C@H](NC(=O)c4ccc(C(C)(C)C)s4)C(=O)N4CC(C(=O)O)C4)cc3)nc2)CC1 (some centres unmarked) [Compound 40] noted as 0.5 to 2.5 µM

Lab book: EC50 of CCc1ccc(C(=O)N[C@@H](Cc2ccc(-c3ncc(C4=CCC(C5CCC(C)(C)CC5)CC4)cn3)cc2)C(=O)N2CC(C(=O)O)C2)s1 (some centres unmarked) [Compound 92] noted as < 0.5 µM

Lab book: EC50 of CCCCCC1CCC(C2CC=C(c3cnc(-c4ccc(C[C@H](NC(=O)c5ccc(C(C)(C)C)s5)C(=O)N5CCC[C@H]5C(=O)O)cc4)nc3)CC2)CC1 (some centres unmarked) [Compound 5] noted as 0.5 to 2.5 µM

Lab book: EC50 of CC1(C)COC2(CC=C(c3cnc(-c4ccc(CC(NC(=O)c5ccc(C(C)(C)C)s5)C(=O)N5CC(C(=O)O)C5)cc4)nc3)CC2)OC1 (centres unmarked) [Compound 43] noted as 5 to 10 µM

Lab book: EC50 of CCC[C@H]1CC[C@H](C2CC=C(c3cnc(-c4ccc(C[C@H](NC(=O)c5ccc(CC(C)C)s5)C(=O)N5CC(C(=O)O)C5)cc4)nc3)CC2)CC1 (some centres unmarked) [Compound 118] noted as < 0.5 µM

Lab book: EC50 of CC(C)(C)c1ccc(C(=O)N[C@@H](Cc2ccc(-c3ncc(C4=CCC(C5CCCCC5)CC4)cn3)cc2)C(=O)O)s1 (some centres unmarked) [Compound 120] noted as 0.5 to 2.5 µM

Lab book: EC50 of CC[C@H]1CC[C@H](C2CC=C(c3cnc(-c4ccc(C[C@H](NC(=O)c5ccc(C(C)(C)C)cc5)C(=O)N5CC(C(=O)O)C5)cc4)nc3)CC2)CC1 (some centres unmarked) [Compound 94] noted as < 0.5 µM

Lab book: EC50 of CCO[C@H]1CC[C@H](C2CC=C(c3cnc(-c4ccc(C[C@H](NC(=O)c5ccc(C(C)(C)C)s5)C(=O)N5CC(C(=O)O)C5)cc4)nc3)CC2)CC1 (some centres unmarked) [Compound 84] noted as < 0.5 µM

***
Lab book: EC50 of CCC[C@H]1CC[C@H](C2CC=C(c3cnc(-c4ccc(C[C@H](NC(=O)c5ccc(C6CC6)s5)C(=O)N5CC(C(=O)O)C5)cc4)nc3)CC2)CC1 (some centres unmarked) [Compound 117] noted as < 0.5 µM

Lab book: EC50 of CCCC1CCC(C2CC=C(c3cnc(-c4ccc(C[C@H](NC(=O)c5ccc(CC(C)C)cc5)C(=O)N5CC(C(=O)O)C5)cc4)nc3)CC2)CC1 (some centres unmarked) [Compound 23] noted as < 0.5 µM

Lab book: EC50 of CCC[C@H]1CC[C@H](C2CCC(c3cnc(-c4ccc(C[C@H](NC(=O)c5ccc(C(C)(C)C)s5)C(=O)N5CC(C(=O)O)C5)cc4)nc3)=C(C)C2)CC1 (some centres unmarked) [Compound 89] noted as < 0.5 µM

Lab book: EC50 of CCCC1CCC(C2CCC(c3cnc(-c4ccc(C[C@H](NC(=O)c5ccc(C(C)C)s5)C(=O)N5CC(C(=O)O)C5)cc4)nc3)CC2)CC1 (some centres unmarked) [Compound 16] noted as 0.5 to 2.5 µM

Lab book: EC50 of CCCC1CCC(C2CC=C(c3cnc(-c4ccc(C[C@H](NC(=O)c5ccc(C(C)=O)cc5)C(=O)N5CC(C(=O)O)C5)cc4)nc3)CC2)CC1 (some centres unmarked) [Compound 30] noted as 0.5 to 2.5 µM

Lab book: EC50 of C[C@@H](NC(=O)[C@H](Cc1ccc(-c2ncc(C3=CCCCC3)cn2)cc1)NC(=O)c1ccc(C(C)(C)C)s1)C(=O)O [Compound 54] noted as 5 to 10 µM

Lab book: EC50 of CCCC1CCC(C2CCC(c3cnc(-c4ccc(C[C@H](NC(=O)c5ccc(CC)cc5)C(=O)N5CC(C(=O)O)C5)cc4)nc3)CC2)CC1 (some centres unmarked) [Compound 20] noted as 5 to 10 µM

Lab book: EC50 of CCCCCC1CCC(C2CC=C(c3cnc(-c4ccc(C[C@H](NC(=O)c5ccc(C(C)(C)C)s5)C(=O)N[C@H](C)C(=O)O)cc4)nc3)CC2)CC1 (some centres unmarked) [Compound 2] noted as 5 to 10 µM

Lab book: EC50 of CC[C@H]1CC[C@H](C2CC=C(c3cnc(-c4ccc(C[C@H](NC(=O)c5ccc(C(C)(C)C)s5)C(=O)NCCC(=O)O)cc4)nc3)CC2)CC1 (some centres unmarked) [Compound 107] noted as < 0.5 µM

Lab book: EC50 of C[C@@H](NC(=O)[C@H](Cc1ccc(-c2ncc(C3=CCC(C(F)(F)F)CC3)cn2)cc1)NC(=O)c1ccc(C(C)(C)C)s1)C(=O)O (some centres unmarked) [Compound 65] noted as 0.5 to 2.5 µM

Lab book: EC50 of C[C@@H](NC(=O)[C@H](Cc1ccc(-c2ncc(C3=Cc4ccccc4C3)cn2)cc1)NC(=O)c1ccc(C(C)(C)C)s1)C(=O)O [Compound 50] noted as 0.5 to 2.5 µM

Lab book: EC50 of CCCc1ccc(C2CC=C(c3cnc(-c4ccc(C[C@H](NC(=O)c5ccc(C(C)(C)C)s5)C(=O)O)cc4)nc3)CC2)cc1 (some centres unmarked) [Compound 121] noted as < 0.5 µM

Lab book: EC50 of CCCC1CCC(C2CCC(c3cnc(-c4ccc(C[C@H](NC(=O)c5cnn(C(C)(C)C)c5)C(=O)N5CC(C(=O)O)C5)cc4)nc3)CC2)CC1 (some centres unmarked) [Compound 18] noted as 5 to 10 µM

Lab book: EC50 of CCCC1CCC(C2CCC(c3cnc(-c4ccc(C[C@H](NC(=O)c5ccc(C6(C)CC6)cc5)C(=O)N5CC(C(=O)O)C5)cc4)nc3)CC2)CC1 (some centres unmarked) [Compound 25] noted as 2.5 to 5 µM

Lab book: EC50 of CC(C)CC1CCC(C2CC=C(c3cnc(-c4ccc(C[C@H](NC(=O)c5ccc(C(C)(C)C)s5)C(=O)N5CC(C(=O)O)C5)cc4)nc3)CC2)CC1 (some centres unmarked) [Compound 86] noted as < 0.5 µM

Data credit: patent US9474755B2
